# Test system: U2OS
# protocol_summary: Incucyte cell viability with U2OS; further: unitless GR value; below 1 slowed growth and below 0 cell loss
# Assay type: toxicity, cell-based
# condition_description: human, 24 h, 10 µM, compound concentration 10 uM, replicate number 2, timepoint 24 hours
Where a SMILES comes first, the peptide text is derived from it. [ ]: non-standard residue; d: D form. Arg(Me) = CNC(=N)NCCC[C@H](N)C(=O)O; d3Pal = N[C@H](Cc1cccnc1)C(=O)O; azaGly = NNC(=O)O
Rule for this label: true (1) means Growth Rate is less than 0.9; false (0) means Growth Rate is at least 0.9.

Qu. Answer whether the molecule CNC(=N)NCCC[C@H](NC(=O)[C@H](CC(C)C)NC(=O)NNC(=O)[C@H](Cc1ccccc1)NC(=O)[C@H](CO)NC(=O)[C@H](CC(N)=O)NC(=O)[C@@H](Cc1cccnc1)NC(=O)[C@H](N)Cc1ccc(O)cc1)C(=O)NCC(N)=O [KISS1-543] (H-[dY][d3Pal]NSF[azaGly]L[Arg(Me)]G-NH2) has Growth Rate strictly less than 0.9
Ans. false (0)

Qu. Answer whether the molecule `COCCn1c(C)c(C)s/c1=N\C(=O)C1C(C)(C)C1(C)C` has Growth Rate strictly less than 0.9
Ans. false (0)

Qu. Answer whether the molecule `C[C@H]1CN(C[C@H](Cc2ccccc2)C(=O)NCC(=O)O)CC[C@@]1(C)c1cccc(O)c1` has Growth Rate strictly less than 0.9
Ans. false (0)

Qu. Answer whether the molecule `CC(C)Oc1ccc(Cc2ccc(NC3=NCCN3)cc2)cc1` has Growth Rate strictly less than 0.9
Ans. false (0)

Qu. Answer whether the molecule `CN(C(=O)c1ccccc1)c1cc(N(C)c2ccc3c(c2)CCc2ccc(C(=O)NCCN4CCOCC4)cc2C3=O)ccc1F` has Growth Rate strictly less than 0.9
Ans. true (1)

Qu. Answer whether the molecule `COc1cc(Nc2ncc3c(n2)-c2ccc(Cl)cc2C(c2c(F)cccc2OC)=NC3)ccc1C(=O)O` has Growth Rate strictly less than 0.9
Ans. true (1)

Qu. Answer whether the molecule `O=C1NC(Nc2ccccc2)=N/C1=C\c1ccc2c(c1)OCO2` has Growth Rate strictly less than 0.9
Ans. true (1)

Qu. Answer whether the molecule `CC(C)OC(=O)N1CCC(Oc2ncnc3c2cnn3-c2ccc(S(C)(=O)=O)cc2F)CC1` has Growth Rate strictly less than 0.9
Ans. false (0)

Qu. Answer whether the molecule CN1C[C@@H](NS(=O)(=O)N(C)C)C[C@@H]2c3cccc4c3c(cn4C)C[C@H]21.Cl [MESULERGINE HYDROCHLORIDE] has Growth Rate strictly less than 0.9
Ans. false (0)

Qu. Answer whether the molecule `Cl.O=C(O)c1cc(-c2ccc(C3CCNCC3)cc2)c2ccc(-c3ccc(C(F)(F)F)cc3)cc2c1` has Growth Rate strictly less than 0.9
Ans. true (1)

Qu. Answer whether the molecule `N=C(N)NCCC[C@H](NC(=O)COCC(c1ccccc1)c1ccccc1)C(=O)O.O=C(O)C(F)(F)F` has Growth Rate strictly less than 0.9
Ans. false (0)

Qu. Answer whether the molecule `Cc1cc(C)cc([C@H]2c3cc(C)ccc3NC(=O)CN2C(=O)c2ccc(Br)s2)c1` has Growth Rate strictly less than 0.9
Ans. false (0)

Qu. Answer whether the molecule CC1=C(C)C(=O)C(C(CCCCCC(=O)O)c2ccccc2)=C(C)C1=O (stereo not drawn) has Growth Rate strictly less than 0.9
Ans. false (0)

Qu. Answer whether the molecule `Cc1cnc(CNCC2(F)CCN(C(=O)c3ccc(F)c(Cl)c3)CC2)nc1` has Growth Rate strictly less than 0.9
Ans. false (0)

Qu. Answer whether the molecule `CCS(=O)(=O)Nc1ccc(Oc2ccc(F)cc2F)c(-c2cn(C)c(=O)c3[nH]ccc23)c1` has Growth Rate strictly less than 0.9
Ans. false (0)

====

This listing pairs molecules with measured Growth Rate.
# Tested on: U2OS
# protocol_summary: Incucyte cell viability with U2OS; further: unitless GR value; below 1 slowed growth and below 0 cell loss
# Assay type: toxicity, cell-based
# condition_description: human, 6 h, 10 µM, compound concentration 10 uM, replicate number 1, timepoint 6 hours
Please state the value as a number alone, without comment.

// worked examples, Growth Rate included
• COc1ccc(NC(=O)c2ccc(-c3ccc(-c4noc(C)n4)cc3C)cc2)cc1OCCN(C)C.Cl = -0.71
• Cc1ccc(O)c([C@H](CCN(C(C)C)C(C)C)c2ccccc2)c1.O=C(O)C(O)C(O)C(=O)O [TOLTERODINE TARTRATE] = 0.98
• CC(C)CCC[C@@H](C)[C@H]1CC[C@H]2[C@@H]3[C@H](O)C=C4C[C@@H](O)CC[C@]4(C)[C@H]3CC[C@]12C = 0.98
• CC1=C(C)C(=O)C(C(C)(C)CC(=O)N(CCCCSC[C@H]2O[C@@H](n3cnc4c(N)ncnc43)[C@H](O)[C@@H]2O)Cc2cccc(-c3ccc(Cl)cc3)c2)=C(C)C1=O = 0.21
• CC(C)(C)c1ccc(S(=O)(=O)Nc2ccc(Cl)cc2C(=O)c2cc[n+]([O-])cc2)cc1 = 0.94

Qu. API: value(readout=Growth Rate, system=U2OS) for record `CCCN1CCO[C@H]2c3cc(O)ccc3OC[C@@H]21.Cl`
Ans. 0.6

Qu. API: value(readout=Growth Rate, system=U2OS) for record `O=C(N[C@@H]1CC[C@@H](c2cccc(F)c2F)CN(CC(F)(F)F)C1=O)N1CCC(n2c(=O)[nH]c3ncccc32)CC1`
Ans. 0.8

Qu. API: value(readout=Growth Rate, system=U2OS) for record `CCC(=O)N1CC[C@H](Nc2ncnc3c2CN(c2cnc(OC)c(C(F)(F)F)c2)CC3)C1`
Ans. 0.65

Qu. API: value(readout=Growth Rate, system=U2OS) for record `CC(C)N(CCCCOCC(=O)NS(C)(=O)=O)c1cnc(-c2ccccc2)c(-c2ccccc2)n1`
Ans. 0.41

====

# System: HEK-293T
# protocol_summary: Incucyte cell viability with HEK293T; further: unitless GR value; below 1 slowed growth and below 0 cell loss
# Type: toxicity, cell-based
# condition_description: human, 18 h, 10 µM, compound concentration 10 uM, replicate number 1, timepoint 18 hours
Criterion: Growth Rate meeting or surpassing 0.6. Met: YES. Not met: NO.

- C[C@@H]1CN(Cc2ccc(F)cc2)CCN1C(=O)COc1ccc(Cl)cc1NC(N)=O [BX 471 FREE BASE]: NO

Qu. Can `O=C1c2c(Br)c(Br)c(Br)c(Br)c2C(=O)N1c1ncc[nH]1` be said to have Growth Rate at or above 0.6?
Ans. YES

Qu. Can `CC(C)[C@H](C(=O)Nc1ccc(C(=O)NO)cc1)c1ccccc1` be said to have Growth Rate at or above 0.6?
Ans. NO

Qu. Can `C[C@@](Cc1c[nH]c2ccccc12)(NC(=O)Nc1ccc([N+](=O)[O-])cc1)C(=O)NCC1(c2ccccn2)CCCCC1` be said to have Growth Rate at or above 0.6?
Ans. NO

Qu. Can `Cl.FC(F)(F)c1ccc(N2CCNCC2)nc1Cl` be said to have Growth Rate at or above 0.6?
Ans. YES

Qu. Can `CCc1nnc(NS(=O)(=O)c2ccc(NC(=S)NC(=O)/C=C/c3ccc(F)cc3)cc2)s1` be said to have Growth Rate at or above 0.6?
Ans. NO

Qu. Can COc1cc2nc(N3CCN(C(=O)C4CCCO4)CC3)nc(N)c2cc1OC.Cl.O.O (stereo not drawn) [TERAZOSIN HYDROCHLORIDE] be said to have Growth Rate at or above 0.6?
Ans. YES

Qu. Can `CCCCOCCOc1nc(-c2ccc(C(=O)O)c(F)c2)sc1C` be said to have Growth Rate at or above 0.6?
Ans. YES

====

# Test system: U2OS
# protocol_summary: Incucyte cell viability with U2OS; further: unitless GR value; below 1 slowed growth and below 0 cell loss
# Format: toxicity, cell-based
# condition_description: human, 18 h, 10 µM, compound concentration 10 uM, replicate number 1, timepoint 18 hours
This listing pairs molecules with measured Growth Rate.
Please state the value as a number alone, without comment.

// worked examples, Growth Rate included
• CN(C)C/C=C/C(=O)Nc1ccc(C(=O)N2CCCC(Nc3ncc(Cl)c(-c4c[nH]c5ccccc45)n3)C2)cc1 (stereo not drawn) = 0.27
• CN(C)CCCOc1ccc(-c2cc(NCCCn3cccn3)nc(S(C)(=O)=O)n2)cc1 = 0.71
• COC(=O)[C@H]1[C@H]2C[C@H]3c4[nH]c5ccccc5c4CCN3C[C@H]2CC[C@@H]1O.Cl [RAUWOLSCINE HYDROCHLORIDE] = 0.79

Qu. API: value(readout=Growth Rate, system=U2OS) for record CN1C[C@H](C(=O)N[C@]2(C)O[C@@]3(O)[C@@H]4CCCN4C(=O)[C@H](Cc4ccccc4)N3C2=O)C[C@@H]2c3cccc4[nH]cc(c34)C[C@H]21.CS(=O)(=O)O [DIHYDROERGOTAMINE MESYLATE]
Ans. 0.95

Qu. API: value(readout=Growth Rate, system=U2OS) for record `CC(C)(O)C(=O)N1CCN(c2ccc(C(F)(F)F)c(C3=C(c4c[nH]c5ccccc45)C(=O)NC3=O)c2)CC1`
Ans. 0.66

Qu. API: value(readout=Growth Rate, system=U2OS) for record `NC(=O)c1cc2c(-c3ccc(C(=O)NCc4ccnc(Cl)c4)s3)cccc2s1`
Ans. 0.07

Qu. API: value(readout=Growth Rate, system=U2OS) for record `CN[C@@H]1C[C@H]2O[C@@](C)([C@@H]1OC)n1c3ccccc3c3c4c(c5c6ccccc6n2c5c31)C(=O)NC4`
Ans. 0.79

Qu. API: value(readout=Growth Rate, system=U2OS) for record `CC(C)[C@H](C(=O)Nc1ccc(C(=O)NO)cc1)c1ccccc1`
Ans. 0.3

Qu. API: value(readout=Growth Rate, system=U2OS) for record `Cc1cc(CN)cc(C)c1-c1ncn(C)c1-c1ccnc2cc(F)ccc12`
Ans. 0.92

Qu. API: value(readout=Growth Rate, system=U2OS) for record `O=S(=O)(c1ccccc1)N(CC(F)(F)F)c1ccc(C(O)(C(F)(F)F)C(F)(F)F)cc1`
Ans. 0.98

Qu. API: value(readout=Growth Rate, system=U2OS) for record `CC(C)n1cnc2c(Nc3cccc(Cl)c3)nc(N[C@H]3CCCC[C@@H]3N)nc21`
Ans. 0.03

Qu. API: value(readout=Growth Rate, system=U2OS) for record `CNC(=O)c1nn(C)c2c1C(C)(C)Cc1cnc(Nc3ccc(N4CCN(C)CC4)cc3)nc1-2`
Ans. 0.23

Origin of the recorded values: ChEMBL document CHEMBL5058564
